molecular target: UniProt P9WPZ9; assay: ArgC enzymatic assay (NADPH oxidation at 340 nm); format: biochemical; conditions: 2 mM fragment, 3.5 μM ArgC, 2.5% DMSO
Sequence (P9WPZ9 whole entry, the tested form may be a part): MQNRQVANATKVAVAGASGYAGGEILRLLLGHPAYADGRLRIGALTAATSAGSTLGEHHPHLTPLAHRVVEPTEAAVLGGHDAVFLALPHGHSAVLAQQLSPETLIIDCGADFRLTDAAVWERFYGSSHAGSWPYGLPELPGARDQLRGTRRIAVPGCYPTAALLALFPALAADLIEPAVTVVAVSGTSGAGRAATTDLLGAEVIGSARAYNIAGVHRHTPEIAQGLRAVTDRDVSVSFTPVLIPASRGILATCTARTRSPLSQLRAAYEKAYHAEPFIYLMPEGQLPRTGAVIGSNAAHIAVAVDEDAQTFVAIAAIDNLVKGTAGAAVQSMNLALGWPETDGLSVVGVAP
test readout: inhibition at 2000 µM (%)
All answers are understood in %, so give the number only.

Any idea what inhibition at 2000 µM came out for Nc1ccc(Oc2ccccc2)nc1 [NMR401, 6-phenoxy-3-pyridinamine] on UniProt P9WPZ9? 10

Now consider COc1ccc2[nH]cc(CC(=O)O)c2c1 [NMR322, 5-Methoxy-3-indoleacetic acid] . 45

Now consider O=C(O)C1c2ccccc2Oc2ccccc21 [NMR571, Xanthene-9-carboxylic acid] . 37

Now consider COc1ccc2oc(C(=O)O)nc2c1 [NMR863] . 12
